test system: Acinetobacter baumannii; assay: Antibacterial activity against multi-drug resistant Acinetobacter baumannii clinical isolate 7 assessed as inhibition of bacterial growth incubated for 16 to 18 hrs by CLSI protocol based method; type: functional; conditions: time 16-18 hrs, read-out: MIC100
Please go through the items and note down their MIC.

MIC reading for `C[C@@H](O)[C@H]1C(=O)N2C(C(=O)O)=C(S[C@@H]3CN[C@H](C(=O)N(C)C)C3)[C@H](C)[C@H]12` : 2 µg/mL

MIC reading for `O=C(CCN1C(=O)c2cccc3cccc(c23)C1=O)NNc1ccc(F)cc1` : 2 µg/mL

MIC reading for `O=C(CCN1C(=O)c2cccc3cccc(c23)C1=O)NNc1ccc(Br)cc1` : 0.5 µg/mL

MIC reading for `CN(C)c1ccc(O)c2c1C[C@H]1C[C@H]3[C@H](N(C)C)C(O)=C(C(N)=O)C(=O)[C@@]3(O)C(O)=C1C2=O` : 8 µg/mL

MIC reading for `O=C(CCN1C(=O)c2cccc3cccc(c23)C1=O)NNc1ccc(Cl)cc1` : 1 µg/mL

MIC reading for `N#Cc1ccc(NNC(=O)CCN2C(=O)c3cccc4cccc(c34)C2=O)cc1` : 1 µg/mL

Source listed as ChEMBL document CHEMBL6134788.
